# TARGET_UNDER_TEST: UniProtKB P43354
# ASSAY_PROTOCOL: Activation of Nurr1 expressed in MN9D cells by luciferase reporter gene assay relative to control
# Assay type: cell-based
# Design: concentration or dose not given beside the values
OBSERVABLE: Activity (%)

COCCOCc1ccc(-c2cc3onc(-c4ccccc4)c3c(=O)n2C)cc1 : 208
CN(C)Cc1ccc(-c2cc3onc(-c4ccccc4)c3c(=O)n2C)cc1 : 171
O=c1[nH]c(-c2ccccc2)cc2onc(-c3ccccc3)c12 : 207
Cn1c(-c2ccc(COCCO)cc2)cc2onc(-c3ccccc3)c2c1=O : 226
Cn1c(-c2ccncc2)cc2onc(-c3ccccc3)c2c1=O : 198
COc1ccc(-c2cc3onc(-c4ccccc4)c3c(=O)n2C)cc1 : 185
COc1ccc(-c2cc3onc(-c4ccccc4)c3c(=O)n2C)c(OC)c1 : 202
Cn1c(-c2ccc3c(c2)OCO3)cc2onc(-c3ccccc3)c2c1=O : 202
CN1CCN(Cc2ccc(-c3cc4onc(-c5ccccc5)c4c(=O)n3C)cc2)CC1 : 163
CC(C)OCCOCc1ccc(-c2cc3onc(-c4ccccc4)c3c(=O)n2C)cc1 : 173

---

# ASSAY_PROTOCOL: Bioavailability in mouse at 10 umol/kg, po
# Assay type: ADME, organism-based
# CONDITION_LABEL: in vivo
OBSERVABLE: bioavailability (%)
Lab book: enter the figure in %, no units written.

[Q] Which bioavailability is reported for this compound? COCCOCc1ccc(-c2cc3onc(-c4ccccc4)c3c(=O)n2C)cc1
[A] 95

---

# TARGET_UNDER_TEST: Nuclear receptor subfamily 4 group A member 2 (Homo sapiens)
# ASSAY_PROTOCOL: Activation of Nurr1 expressed in MN9D cells by luciferase reporter gene assay
OBSERVABLE: EC50 (nM)

Worked examples follow.
COCCOCc1ccc(-c2cc3onc(-c4ccccc4)c3c(=O)n2C)cc1 : 3.9
O=c1[nH]c(-c2ccccc2)cc2onc(-c3ccccc3)c12 : 77.5

(1) COc1ccc(-c2cc3onc(-c4ccccc4)c3c(=O)n2C)c(OC)c1
(2) CN(C)Cc1ccc(-c2cc3onc(-c4ccccc4)c3c(=O)n2C)cc1
[Q] When their EC50 values are compared, which is larger, 1 or 2 ? Identify your pick by its label.
[A] 1

(a) Cn1c(-c2ccc3c(c2)OCO3)cc2onc(-c3ccccc3)c2c1=O
(b) Cn1c(-c2ccc(COCCO)cc2)cc2onc(-c3ccccc3)c2c1=O
[Q] Kindly compare a with b and tell me which has the lower EC50 figure. Identify your pick by its label.
[A] a
(a: 0.8 nM, b: 3.5 nM)

---

# TARGET_UNDER_TEST: Nuclear receptor subfamily 4 group A member 2 (Homo sapiens, UniProt P43354)
# Sequence (P43354 whole entry): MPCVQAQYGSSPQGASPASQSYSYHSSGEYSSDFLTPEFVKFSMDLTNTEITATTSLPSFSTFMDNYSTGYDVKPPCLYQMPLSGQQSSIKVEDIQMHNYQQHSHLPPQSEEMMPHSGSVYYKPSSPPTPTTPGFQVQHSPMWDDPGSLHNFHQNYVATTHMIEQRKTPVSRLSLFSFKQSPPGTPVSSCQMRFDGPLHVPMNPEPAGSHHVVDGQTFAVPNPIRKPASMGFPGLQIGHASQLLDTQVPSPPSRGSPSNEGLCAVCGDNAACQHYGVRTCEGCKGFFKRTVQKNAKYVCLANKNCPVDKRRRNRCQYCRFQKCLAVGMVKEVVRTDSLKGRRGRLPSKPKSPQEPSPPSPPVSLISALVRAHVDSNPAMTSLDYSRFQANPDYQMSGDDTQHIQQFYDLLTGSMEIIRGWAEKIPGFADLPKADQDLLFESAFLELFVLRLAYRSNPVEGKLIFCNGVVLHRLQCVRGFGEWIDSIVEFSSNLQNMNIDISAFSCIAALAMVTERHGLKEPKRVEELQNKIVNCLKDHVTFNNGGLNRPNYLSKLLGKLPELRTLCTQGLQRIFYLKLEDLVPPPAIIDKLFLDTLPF
# ASSAY_PROTOCOL: Activation of Nurr1 expressed in MN9D cells by luciferase reporter gene assay
OBSERVABLE: EC50 (µM)

Worked examples follow.
CC(C)OCCOCc1ccc(-c2cc3onc(-c4ccccc4)c3c(=O)n2C)cc1 : 0.113
Cn1c(-c2ccncc2)cc2onc(-c3ccccc3)c2c1=O : 0.13

(I) CN1CCN(Cc2ccc(-c3cc4onc(-c5ccccc5)c4c(=O)n3C)cc2)CC1
(II) COc1ccc(-c2cc3onc(-c4ccccc4)c3c(=O)n2C)cc1
[Q] Kindly compare I with II and tell me which has the lower EC50 figure. Identify your pick by its label.
[A] II
(II: 0.0041 µM, I: 0.0319 µM)
